# system: Metabotropic glutamate receptor 8 (Rattus norvegicus)
# protocol_details: mGluR8 Gi/Go-coupled signaling modulation – cell-based, rat, thallium flux, HTS, primary screen (AID 488969)
# assay_setup: HEK293 rat mGluR8, GIRK (G protein-gated inwardly rectifying potassium channel) thallium flux, FluoZin2; at 10 µM; stronger effect = higher value; submaximal glutamate (EC20) added with thallium
The full ranking holds about 110,000 compounds; the median of “z-score” is about -0.1, and the highest 2% start at about 2. The list comes from a sample in which the highest values are over-represented; it also holds close analogues and randomly drawn compounds.
Classes based on z-score: Low (below -0.07), Medium (-0.07 to below 0.5), High (0.5 or more)

Solved entries (count: 6):
CC(=O)NC1=NN(C(C)=O)C(C)(CS(=O)(=O)c2ccc(C)c(C)c2)S1 (centres undefined) | Low
O=C(Oc1ccc(-c2nnco2)cc1)N(c1ccccc1)c1ccccc1 | High
COC(=O)C(O)(CC(=O)Nc1ccc(OC(F)(F)F)cc1)C(F)(F)F (centres undefined) | Low
Cc1ccccc1N=C1NC(=O)CS1 | High
O=C(COc1ccccc1Cl)Nc1cc(Cl)ccc1Oc1ccccc1 | Medium
Cc1cccnc1NC(=O)Nc1cccs1 | Low

Exam item: Hi, small favor: classify CCOC(=O)C(Oc1ccc2c(-c3ccccc3)cc(=O)oc2c1C)c1ccccc1 (centres undefined) by its z-score when you get a moment.
Marked response: Low

Exam item: Hi, small favor: classify CN(C)c1ccnc2sc3c(NCC(O)CO)ncnc3c12 (centres undefined) by its z-score when you get a moment.
Marked response: Low

Exam item: Hi, small favor: classify `O=C(NCCCN1CCN(c2ccccc2)CC1)Nc1ccccc1C(F)(F)F` by its z-score when you get a moment.
Marked response: Low

Exam item: Hi, small favor: classify CCCCCCCC1CC(CSC(=N)N)OC1=O (centres undefined) by its z-score when you get a moment.
Marked response: High

Exam item: Hi, small favor: classify `O=C(CCC(=O)c1ccc(Oc2ccccc2)cc1)Nc1ccc(Cl)cc1Cl` by its z-score when you get a moment.
Marked response: Medium

Exam item: Hi, small favor: classify `CCn1c(NC(=O)Nc2cccc(C)c2C)cc2sccc21` by its z-score when you get a moment.
Marked response: High

Exam item: Hi, small favor: classify `CCc1ccccc1NC(=O)c1cc2sccc2n1C` by its z-score when you get a moment.
Marked response: Low
